Values compiled from patent US20120039904A1.

target: T1, human ASCT2 (system ASC amino acid transporter 2), endogenous on human tumour cell lines (human, UniProt Q15758 1-541)
T1 construct: Endogenous ASCT2 of cell lines KMS-11 (stated to express ASCT2 mRNA), WiDr and OPM-2; also called SLC1A5; ASCT2 on KMS-11, OPM-2, WiDr cells
T1 sequence: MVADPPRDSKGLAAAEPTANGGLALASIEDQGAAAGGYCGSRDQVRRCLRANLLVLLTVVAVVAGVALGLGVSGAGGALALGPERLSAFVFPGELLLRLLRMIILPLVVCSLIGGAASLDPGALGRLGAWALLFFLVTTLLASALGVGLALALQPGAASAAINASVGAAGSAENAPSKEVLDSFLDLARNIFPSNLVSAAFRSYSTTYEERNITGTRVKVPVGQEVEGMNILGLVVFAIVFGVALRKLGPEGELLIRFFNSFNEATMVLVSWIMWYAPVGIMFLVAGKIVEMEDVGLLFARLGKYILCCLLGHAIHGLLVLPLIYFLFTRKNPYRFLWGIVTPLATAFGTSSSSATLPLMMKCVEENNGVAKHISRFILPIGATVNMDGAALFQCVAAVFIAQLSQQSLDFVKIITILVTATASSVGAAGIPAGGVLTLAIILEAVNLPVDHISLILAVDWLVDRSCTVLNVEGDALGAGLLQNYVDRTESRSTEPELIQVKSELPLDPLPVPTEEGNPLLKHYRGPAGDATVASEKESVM
assay text: flow cytometry on KMS-11 cells
readout: binding result

binder	measured result
anti-ASCT2 humanized antibody KM4008HV10LV3 (antibody, V domains shown, Expressed from vector pKANTEX93 with human CH and CL; SDS-PAGE pattern of an IgG class antibody) VH: QIQLVQSGPELKKPGAPVKISCKASGYTFTTFGMSWVKQAPGQGLKWMGWIHTYAGVPIYGDDFKGRFVFSLDTSVSTAYLQISSVKAEDTATYFCARRSDNYRYFFDYWGQGTTLTVSS VL: DIQMTQSPSSLSASLGDRVTITCRASQDIRNYLNWYQQKPGKAPKLLIYYTSRLHSGVPSRFSGSGSGTDYTLTISSLQPEDFATYFCQQGHTLPPTFGQGTKLEIK	binds
anti-ASCT2 monoclonal antibody KM4012 (antibody, mouse IgG2b, V domains shown, mouse IgG2b, kappa) VH: QIQLVQSGPELKKPGETVKISCKASGYTFTTYGMSWVKQTPGKGLKWMGWIHTYSGVPIYGDDSKGRFAFSLETSGSIAYLQINNVKNEDTATYFCARRSDGYRYFFDYWGQGTTLTVSS VL: DIQMTQITSSLSASLGDRVTISCRASQDIRNYLNWYQQKPDGTVKLLIYYTSRLHSGVPSRFSGSGSGTDYSLTISNLEQEDIATYFCQQGNTLPPTFGGGTKLEIKR	binds
